Every entry's value here was drawn from PubChem BioAssay AID1963845.

Tested on: 429239-143-T-J1-PDC complex spheroid viability
Protocol summary: Anticancer human tumor 429239-143-T-J1-PDC patient-derived small cell lung carcinoma cell line growth inhibition [POLQ]
Particulars: second compound 0.316 µM; first compound 0.00316 µM; hits give low values
The following compounds are shown together with reported viability, T/C values.
# unit: % | format: bare number

Q: Look up viability, T/C of CC[C@@]1(O)C(=O)OCc2c1cc1n(c2=O)Cc2cc3c(CN(C)C)c(O)ccc3nc2-1 + Cc1cccc(N(C)C(=O)C2C(O)CCN2c2nc(C)cc(C(F)(F)F)c2C#N)c1 and report it.
Result: 88.7

New cases:
Q: Read the entry CC[C@@]1(O)C(=O)OCc2c1cc1n(c2=O)Cc2cc3c(CN(C)C)c(O)ccc3nc2-1 + Nc1ccc(C#CCN(C(=O)Cc2ncc(C(F)(F)F)cc2C(F)(F)F)c2ccc(F)cc2)nn1 and write its reported viability, T/C.
Result: 96.5

Q: Please report viability, T/C for the following compound: C=CCn1c(=O)c2cnc(Nc3ccc(N4CCN(C)CC4)cc3)nc2n1-c1cccc(C(C)(C)O)n1 + Cc1cccc(N(C)C(=O)C2C(O)CCN2c2nc(C)cc(C(F)(F)F)c2C#N)c1
Result: 109

Q: Using known records, supply viability, T/C for CC[C@@]1(O)C(=O)OCc2c1cc1n(c2=O)Cc2cc3c(CN(C)C)c(O)ccc3nc2-1 + COC1C(OC(N)=O)C(O)C(Oc2ccc3c(O)c(NC(=O)c4ccc(O)c(CC=C(C)C)c4)c(=O)oc3c2C)OC1(C)C
Result: 101

---

System: 429239-143-T-J1-PDC complex spheroid viability
Protocol summary: Anticancer human tumor 429239-143-T-J1-PDC cell line growth inhibition [POLQ];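 also: luminescence signal used as surrogate measure of viable cells; spheroids exposed to compounds for seven days before readout; 100% = DMSO vehicle control viability as luminescence relative to vehicle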
Particulars: second compound 0.0316 µM; first compound 0.01 µM; hits give low values
Description: Multicellular complex tumor spheroid response to Polymerase (POL) inhibitors (novobiocin, ART-558, RP6685) in combination with a variety of drugs and investigational agents in selected tumor cell lines The POL inhibitors (novobiocin, ART-558, and RP6685) were evaluated both individually and in combination with standard of care and investigational anticancer small molecules within a complex spheroid model of solid tumors. . […]
Some compounds, each annotated with its measured viability, T/C.

Q: Quickly give me recorded viability, T/C for COc1cccc(OCCCN)c1-c1cc(Nc2cnc(C#N)cn2)n[nH]1 + COC1C(OC(N)=O)C(O)C(Oc2ccc3c(O)c(NC(=O)c4ccc(O)c(CC=C(C)C)c4)c(=O)oc3c2C)OC1(C)C
Result: 94.7%

Q: Provide measured viability, T/C value, entry: C=CCn1c(=O)c2cnc(Nc3ccc(N4CCN(C)CC4)cc3)nc2n1-c1cccc(C(C)(C)O)n1 + COC1C(OC(N)=O)C(O)C(Oc2ccc3c(O)c(NC(=O)c4ccc(O)c(CC=C(C)C)c4)c(=O)oc3c2C)OC1(C)C
Result: 93%

Q: Report measured viability, T/C; entry is CCc1c2c(nc3ccc(O)cc13)-c1cc3c(c(=O)n1C2)COC(=O)[C@]3(O)CC + Cc1cccc(N(C)C(=O)C2C(O)CCN2c2nc(C)cc(C(F)(F)F)c2C#N)c1
Result: 17.8%

Q: Please look at this compound and report its viability, T/C: Cn1ncnc1[C@H]1c2n[nH]c(=O)c3cc(F)cc(c23)N[C@@H]1c1ccc(F)cc1 + Nc1ccc(C#CCN(C(=O)Cc2ncc(C(F)(F)F)cc2C(F)(F)F)c2ccc(F)cc2)nn1
Result: 83.4%

Q: For the compound Cn1ncnc1[C@H]1c2n[nH]c(=O)c3cc(F)cc(c23)N[C@@H]1c1ccc(F)cc1 + COC1C(OC(N)=O)C(O)C(Oc2ccc3c(O)c(NC(=O)c4ccc(O)c(CC=C(C)C)c4)c(=O)oc3c2C)OC1(C)C , give its reported viability, T/C.
Result: 62.6%

Q: Identify measured viability, T/C corresponding to C=CCn1c(=O)c2cnc(Nc3ccc(N4CCN(C)CC4)cc3)nc2n1-c1cccc(C(C)(C)O)n1 + Nc1ccc(C#CCN(C(=O)Cc2ncc(C(F)(F)F)cc2C(F)(F)F)c2ccc(F)cc2)nn1
Result: 97.4%

Q: Quickly give me recorded viability, T/C for C=CCn1c(=O)c2cnc(Nc3ccc(N4CCN(C)CC4)cc3)nc2n1-c1cccc(C(C)(C)O)n1 + Cc1cccc(N(C)C(=O)C2C(O)CCN2c2nc(C)cc(C(F)(F)F)c2C#N)c1
Result: 110%

Q: Tell me measured viability, T/C for CCc1c2c(nc3ccc(O)cc13)-c1cc3c(c(=O)n1C2)COC(=O)[C@]3(O)CC + COC1C(OC(N)=O)C(O)C(Oc2ccc3c(O)c(NC(=O)c4ccc(O)c(CC=C(C)C)c4)c(=O)oc3c2C)OC1(C)C please.
Result: 17.6%

Here is another compound to look at.
Q: State, in one line, measured viability, T/C of Cn1ncnc1[C@H]1c2n[nH]c(=O)c3cc(F)cc(c23)N[C@@H]1c1ccc(F)cc1 + Cc1cccc(N(C)C(=O)C2C(O)CCN2c2nc(C)cc(C(F)(F)F)c2C#N)c1
Result: 62.4%
